Attribution: the RNAGym collection of RNA variant scans (doi:10.1093/molbev/msab373)

B1: Azoarcus group I ribozyme (parent)
chain: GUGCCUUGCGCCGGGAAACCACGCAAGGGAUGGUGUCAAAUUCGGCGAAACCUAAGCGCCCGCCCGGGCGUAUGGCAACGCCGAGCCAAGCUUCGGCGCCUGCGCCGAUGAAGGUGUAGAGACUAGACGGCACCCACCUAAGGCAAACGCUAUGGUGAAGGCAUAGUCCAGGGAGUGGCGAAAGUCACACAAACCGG

Variants of: B1
Experiment: reverse-splicing fitness (ratio to wild type); higher = more active; in vitro selection; Mg2+ level not given
The threshold is inclusive: reverse-splicing fitness of exactly 0.02 counts as criterion met; values below receive criterion not met.

* C82U A111C A120U A145G C150A C169U U176G | criterion not met
* A111C C150U C169A U176A | criterion not met
* C82G A111U A120C C150A C169A U176A | criterion met
* A111C A120C C150U U176A | criterion met
* A111G A120U A145U C150G U176A | criterion not met
* A111G A120G A145C C150A U176G | criterion not met
* C82U A111G A120G C150A C169U U176A | criterion met
* C82G A111C A120G A145G C150A U176C | criterion not met
* C82A A145G C150G U176A | criterion met
* C82G A120G A145G C150U C169G U176C | criterion met
* C82G A111U A120G A145G C150U U176C | criterion not met
* C82A A111G A120C A145G C150A C169A U176A | criterion not met
* C82G A111G A120U A145U U176G | criterion not met
* C82U A111G A120U C150A | criterion not met
* C150G C169U U176A | criterion not met
* C82A A111C A120G A145G C150U C169G | criterion not met
* C82A A111G C150U C169U U176A | criterion not met
* C82G A111G A145U U176G | criterion met
* A111G U176C | criterion met
* C82G A120G A145G C169U U176G | criterion not met
* C82A A120G C150A C169G U176C | criterion met
* C82U A111U A145G C150A C169U U176G | criterion not met
* C82U A120C A145C C150G C169G | criterion not met
* A111C A120C A145U C169A U176G | criterion not met
* C82A A111G A120U A145C C150G C169G | criterion not met
* C82U A120U A145U C150G C169A U176A | criterion not met
* A120G C150A C169A U176C | criterion met
* C82G A111C A120C C150A C169U U176C | criterion not met
* A120C C150G C169G U176A | criterion not met
* C82U A111C A120C A145U C150A C169G U176G | criterion not met
* C82U A111G A120C A145G C150U U176C | criterion met
* C82A A120U A145C C150G | criterion not met
